- assay_info: Determination of plasma protein binding (equilibrium dialysis)
- Format: in vitro ADME
- stated_conditions: bound drug fraction to plasma protein; 4 hours at 37° C.
Binary call on Exposure (% rPPB) with cut-off 20%: strictly below means YES, and equality or higher means NO.

Here are 5 molecules together with their reported answers.
{"columns": ["molecule", "class_assignment"],
 "data": [
  ["Cc1noc(-c2nnc3n2CCN(C(=O)c2ccc(F)cc2)[C@@H]3C)n1", "YES"],
  ["Cc1nsc(-c2nnc3n2CCN(C(=O)c2ccc(F)c(Cl)c2)[C@@H]3C)n1", "NO"],
  ["COc1cccc(C(=O)N2CCn3c(-c4nc(C)ns4)nnc3[C@H]2C)c1", "NO"],
  ["Cc1nsc(-c2nnc3n2CCN(C(=O)c2cc(F)c(F)c(F)c2)[C@@H]3C)n1", "NO"],
  ["Cc1nsc(-c2nnc3n2CCN(C(=O)c2cc(F)c(F)c(F)c2)C3C)n1 (racemic)", "NO"]
]}

# input Is Exposure (% rPPB) of `Cc1nsc(-c2nnc3n2CCN(C(=O)c2ccc(C#N)cc2)[C@@H]3C)n1` strictly below 20%?
# output YES

# input Quick check: Exposure (% rPPB) of Cc1nsc(-c2nnc3n2CCN(C(=O)c2ccc(Cl)c(F)c2)C3C)n1 (racemic) under 20%?
# output NO

# input Problem: For the molecule C[C@H](F)c1noc(-c2nnc3n2CCN(C(=O)c2ccc(F)cc2)[C@@H]3C)n1 [Compound 45-1] , is Exposure (% rPPB) under 20%?
# output NO

###

- assay_info: Determination of plasma protein binding (equilibrium dialysis)
- Format: in vitro ADME
- stated_conditions: bound drug fraction to plasma protein; 4 hours at 37° C.
Overview of recorded Exposure (% rPPB) for various compounds
Hi! Could you send only the number? It should be in %, unit omitted.

Here are 5 compounds together with their reported answers.
{"columns": ["compound", "unit_info", "Exposure (% rPPB)"],
 "data": [
  ["Cc1nsc(-c2nnc3n2CCN(C(=O)c2cccc(F)c2)[C@@H]3C)n1", "%", 20],
  ["Cc1nsc(-c2nnc3n2CCN(C(=O)c2cc(F)cc(F)c2)[C@@H]3C)n1", "%", 24],
  ["Cc1nsc(-c2nnc3n2CCN(C(=O)c2ccc(F)cc2)[C@@H]3C)n1", "%", 22],
  ["Cc1nsc(-c2nnc3n2CCN(C(=O)c2cccc(Cl)c2)[C@@H]3C)n1", "%", 36],
  ["CCc1noc(-c2nnc3n2CCN(C(=O)c2ccc(-c4cccs4)cc2)[C@@H]3C)n1", "%", 94]
]}

# input compound: Cc1nsc(-c2nnc3n2CCN(C(=O)c2ccc(F)cc2)C3C)n1 (racemic) ; wanted: its Exposure (% rPPB)
# output 21

# input May I ask what Exposure (% rPPB) has been recorded for `Cc1nsc(-c2nnc3n2CCN(C(=O)c2ccc(Cl)c(F)c2)[C@@H]3C)n1` ?
# output 40

# input Consider the compound Cc1nsc(-c2nnc3n2CCN(C(=O)c2cc(F)c(F)c(F)c2F)C3C)n1 (racemic) and give its measured Exposure (% rPPB).
# output 31

# input I would be grateful if you could share the reported Exposure (% rPPB) for `Cc1nsc(-c2nnc3n2CCN(C(=O)c2ccc(F)c(F)c2F)[C@@H]3C)n1` .
# output 29

# input Report Exposure (% rPPB) for CC(F)c1noc(-c2nnc3n2CCN(C(=O)c2ccc(F)cc2)[C@@H]3C)n1 (stereo partly drawn) please.
# output 31

# input Name the recorded Exposure (% rPPB) for `Cc1nsc(-c2nnc3n2CCN(C(=O)c2ccc(F)c(F)c2)[C@@H]3C)n1` .
# output 22

# input For `Cc1nsc(-c2nnc3n2CCN(C(=O)c2cc(F)c(F)c(F)c2F)[C@@H]3C)n1` , what is its reported Exposure (% rPPB)?
# output 30

# input // query Exposure (% rPPB) value for entry CCc1nsc(-c2nnc3n2CCN(C(=O)c2ccc(F)cc2)C3C)n1 (racemic)
# output 43

# input Sample CCC1c2nnc(-c3nc(C)ns3)n2CCN1C(=O)c1ccc(F)cc1 (racemic) — what was its Exposure (% rPPB)?
# output 34

# input Exposure (% rPPB) lookup needed for Cc1nsc(-c2nnc3n2CCN(C(=O)c2ccc(F)c(Cl)c2)C3C)n1 (racemic) , thanks.
# output 52

# input Record request: Exposure (% rPPB) value, item `C[C@@H]1c2nnc(-c3nc(C(C)(F)F)no3)n2CCN1C(=O)c1ccc(F)cc1`
# output 47

# input Look at this compound and give its reported Exposure (% rPPB). `CCc1nsc(-c2nnc3n2CCN(C(=O)c2ccc(F)cc2)[C@@H]3C)n1`
# output 47

# input Query (compound): Cc1nsc(-c2nnc3n2CCN(C(=O)c2ccc(F)c(F)c2F)C3C)n1 (racemic) ; field requested: Exposure (% rPPB)
# output 29

# input Entry `Cc1nsc(-c2nnc3n2CCN(C(=O)c2ccc(C(F)(F)F)cc2)[C@@H]3C)n1` : reported Exposure (% rPPB) = ?
# output 38

# input Query (compound): `CC[C@@H]1c2nnc(-c3nc(C)ns3)n2CCN1C(=O)c1ccc(F)cc1` ; field requested: Exposure (% rPPB)
# output 27

# input # lookup: Exposure (% rPPB) of `CCc1noc(-c2nnc3n2CCN(C(=O)c2ccc(F)cc2)[C@@H]3C)n1`
# output 37

Provenance of the data: patent US10836768B2
